Experiment: Probe fluorescence ratio response to linolenic acid relative to ADIFAB2
Assay type: binding
Conditions: response relative to ADIFAB2
assay endpoint: DR/DR LNA

molecule	result
34R, 72A (protein, listed as Rattus norvegicus, PEPTIDE (1)...(131) wild-type rat intestinal fatty acid binding protein) AFDGTWKVDRNENYEKFMEKMGINVVKRKLGAHRNLKLTITQEGNKFTVKESSNFRNIDVVFELGVDFAYSAADGTELTGTWTMEGNKLVGKFKRVDNGKELIAVREISGNELIQTYTYEGVEAKRIFKKE	0.47
68I, 72A (protein, listed as Rattus norvegicus, PEPTIDE (1)...(131) wild-type rat intestinal fatty acid binding protein) AFDGTWKVDRNENYEKFMEKMGINVVKRKLGAHDNLKLTITQEGNKFTVKESSNFRNIDVVFELGVDIAYSAADGTELTGTWTMEGNKLVGKFKRVDNGKELIAVREISGNELIQTYTYEGVEAKRIFKKE	0.36
72T 74V (protein, listed as Rattus norvegicus, PEPTIDE (1)...(131) wild-type rat intestinal fatty acid binding protein) AFDGTWKVDRNENYEKFMEKMGINVVKRKLGAHDNLKLTITQEGNKFTVKESSNFRNIDVVFELGVDFAYSTAVGTELTGTWTMEGNKLVGKFKRVDNGKELIAVREISGNELIQTYTYEGVEAKRIFKKE	3.680
68D, 72A (protein, listed as Rattus norvegicus, PEPTIDE (1)...(131) wild-type rat intestinal fatty acid binding protein) AFDGTWKVDRNENYEKFMEKMGINVVKRKLGAHDNLKLTITQEGNKFTVKESSNFRNIDVVFELGVDDAYSAADGTELTGTWTMEGNKLVGKFKRVDNGKELIAVREISGNELIQTYTYEGVEAKRIFKKE	1.23
47P1, L72A (protein, listed as Rattus norvegicus, PEPTIDE (1)...(131) wild-type rat intestinal fatty acid binding protein) AFDGTWKVDRNENYEKFMEKMGINVVKRKLGAHDNLKLTITQEGNKPTVKESSNFRNIDVVFELGVDFAYSAADGTELTGTWTMEGNKLVGKFKRVDNGKELIAVREISGNELIQTYTYEGVEAKRIFKKE	0.61
18L 73F 117G 72A (protein, listed as Rattus norvegicus, PEPTIDE (1)...(131) wild-type rat intestinal fatty acid binding protein) AFDGTWKVDRNENYEKFLEKMGINVVKRKLGAHDNLKLTITQEGNKFTVKESSNFRNIDVVFELGVDFAYSAFDGTELTGTWTMEGNKLVGKFKRVDNGKELIAVREISGNELIQTGTYEGVEAKRIFKKE	1.913
